The measured values listed here are drawn from PubChem BioAssay (NCI).

experiment: NCI Yeast Anticancer Drug Screen. Data for the wt2 strain (AID 169);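 note: 0% = growth of vehicle-treated yeast cultures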; conditions: S. cerevisiae wt2 strain growth inhibition; at 3.7 µM; active compounds read high
This is part of a sample that, as a whole, favours compounds with a hit. Of some 79,000 tested, about 15% had one in any assay.
Provide the recorded growth inhibition for the entries that follow.
Just the number please, in %, no unit attached.

Sample C[N+](C)(C)CC1CCCC(C[N+](C)(C)C)C1=O (stereo not given) — what was its growth inhibition?
7

Need growth inhibition of CCNC(=O)OCC1C2=C(C(=O)C(C)=C(N)C2=O)N2CC3C(N3C)C12OC (stereo not given) , thanks.
-32

Using the record for C[C@@]12CCC(=O)C=C1CC[C@H]1C2=CC[C@]2(C)C1CC[C@@]2(C)O (stereo not given in full) , report its growth inhibition.
-19

Find the recorded growth inhibition belonging to C[CH2][Sn]1([CH2]C)[O]C2C(O)OC(CO)C(O)C2[O]1 (stereo not given) and report it.
-42

Recorded growth inhibition of Nc1nc(N)c2c(Cl)c(CNc3ccc(C(=O)NC(CC(=O)O)C(=O)O)cc3)ccc2n1 (stereo not given) , please.
-44

Please look up its growth inhibition: O=S(=O)(O)/C(=C\c1ccccc1)c1ccccc1 (tested in a mixture with another compound)
0

Please look up its growth inhibition: O=C1C=C(CN(CCCl)CCCl)C(=O)C=C1CN(CCCl)CCCl
-3

Find the recorded growth inhibition belonging to COc1ccc(OC)c(/C=C/[N+](=O)[O-])c1 and report it.
-1

Field request: growth inhibition | item: O=C1NC(=S)NC(=O)C1=C/C=C/c1ccccc1
-3

Could you tell me which growth inhibition is on file for O=[N+]([O-])c1cc(S(=O)(=O)F)ccc1Cl ?
-4
